Target: JAK-1 (Homo sapiens (Human))
Sequence (P23458 whole entry): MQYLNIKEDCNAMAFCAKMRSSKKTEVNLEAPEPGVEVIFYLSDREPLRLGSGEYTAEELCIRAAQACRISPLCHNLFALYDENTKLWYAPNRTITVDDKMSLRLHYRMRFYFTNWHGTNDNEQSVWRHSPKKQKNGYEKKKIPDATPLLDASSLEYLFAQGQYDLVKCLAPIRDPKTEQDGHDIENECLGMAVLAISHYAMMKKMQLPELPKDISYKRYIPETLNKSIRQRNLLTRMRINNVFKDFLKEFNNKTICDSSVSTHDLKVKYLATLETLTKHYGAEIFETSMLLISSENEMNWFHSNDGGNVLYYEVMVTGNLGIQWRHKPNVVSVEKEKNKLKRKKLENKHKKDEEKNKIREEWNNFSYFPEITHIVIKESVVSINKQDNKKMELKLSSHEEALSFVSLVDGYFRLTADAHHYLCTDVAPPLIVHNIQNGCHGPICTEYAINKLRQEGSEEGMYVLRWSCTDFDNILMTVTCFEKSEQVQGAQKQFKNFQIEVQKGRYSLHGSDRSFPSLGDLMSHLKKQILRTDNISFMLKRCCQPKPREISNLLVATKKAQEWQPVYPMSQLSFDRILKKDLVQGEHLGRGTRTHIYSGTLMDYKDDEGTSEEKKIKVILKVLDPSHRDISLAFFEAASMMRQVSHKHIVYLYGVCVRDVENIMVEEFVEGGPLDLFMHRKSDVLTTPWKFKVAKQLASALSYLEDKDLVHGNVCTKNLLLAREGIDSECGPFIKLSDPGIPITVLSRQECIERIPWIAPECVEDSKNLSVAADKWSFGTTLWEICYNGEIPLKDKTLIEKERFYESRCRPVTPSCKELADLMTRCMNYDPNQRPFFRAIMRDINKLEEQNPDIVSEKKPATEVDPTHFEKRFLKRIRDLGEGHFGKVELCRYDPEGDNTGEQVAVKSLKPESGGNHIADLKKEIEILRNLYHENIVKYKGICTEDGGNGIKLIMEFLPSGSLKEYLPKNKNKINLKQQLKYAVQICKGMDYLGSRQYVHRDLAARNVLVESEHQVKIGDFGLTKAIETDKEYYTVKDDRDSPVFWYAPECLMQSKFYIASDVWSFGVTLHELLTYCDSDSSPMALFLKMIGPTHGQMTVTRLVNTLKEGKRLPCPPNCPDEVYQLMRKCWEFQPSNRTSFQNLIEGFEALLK
Assay: Inhibition test on JAK-1 kinase (FRET peptide substrate assay)
Type: biochemical
Settings: kinase 1 nM, 1 h at room temperature
Excerpt: Experiment Example (Inhibition Tests on JAK-1, JAK-2 and JAK-3 Kinases) To evaluate the inhibitory activity of the compound on JAK-1, JAK-2 and JAK-3 kinases A proteolytic enzyme is coupled to exert different proteolysis on a specific phosphorylated and nonphosphorylated peptide substrate based on fluorescence resonance energy transfer (FRET). […]
# maps each entry to its log10(IC50)
Base-10 log of IC50, unit nM.

>>> experimental_value("C/C=C/C(=O)Nc1cccc(Cn2ncc3cnc(Nc4ccc(F)cc4)nc32)c1")
3.01
>>> experimental_value("C/C=C/C(=O)Nc1cccc(Cn2ncc3cnc(Nc4cnn(CCOC)c4)nc32)c1")
2.85
>>> experimental_value("C/C=C/C(=O)Nc1ccc(Cn2ncc3cnc(Nc4ccc(N5CCN(C)CC5)cc4)nc32)cc1")
3.61

Data point: `C=CC(=O)Nc1ccc(Cn2ncc3cnc(Nc4ccc(F)cc4)nc32)cc1` ; log10(IC50) = 3.20

Data point: `C=CC(=O)Nc1ccc(Cn2ncc3cnc(Nc4cnn(CCOC)c4)nc32)cc1` ; log10(IC50) = 3.19

Origin of values: patent US11993603B2
